Tested on: Japanese bulrush (Scirpus juncoides)
Assay: Weed control test for paddy field (Test Example 1): Japanese bulrush
Assay type: in vivo
Conditions: dose 5 g ai/a; paddy pots, treated at 1.0 leaf stage of barnyard grass; examined after 3 weeks
measurement.type: Herbicidal Effect Japanese bulrush

                                   compound    reported_measurement
0  CSCC(=Cc1cccc(C(F)(F)F)c1)c1nc2cc(Cl)ccc2o1 [Compound 30]                5 (100%)
1  COCC(=Cc1cccc(C(F)(F)F)c1)c1nc2cc(C(C)(C)C)ccc2o1 [Compound 151]                5 (100%)
2  COCC(=Cc1ccc(Cl)c(C(F)(F)F)c1)c1nc2cc(Cl)ccc2o1 [Compound 9]  4 (80%-less than 100%)
3  COCC(=Cc1cccc(C(F)(F)F)c1)c1nc2cc(C(F)(F)F)ccc2o1 [Compound 52]                5 (100%)
4  CCOC/C(=C\c1cccc(C(F)(F)F)c1)c1nc2cc(Cl)ccc2o1 [Compound 11]                5 (100%)
5  COCC(=Cc1ccc(F)c(C(F)(F)F)c1)c1nc2cc(F)c(F)cc2o1 [Compound 126]  4 (80%-less than 100%)
6  COCC(=Cc1cccc(C(F)(F)F)c1)c1nc2cc(Br)ccc2o1 [Compound 39]  4 (80%-less than 100%)
